System: LPS-induced TNFα secretion in U 937 cells
TEST METHOD NOTES: Modulation of proinflammatory cytokine production in U 937 cells (transrepression): TNFα
Format: cell-based
RUN CONDITIONS: Homo sapiens; 1 μM test compound; U 937 cells stimulated with 5 μg/mL LPS; inhibition by Dexamethasone at 10 nM considered as 100%; read-out: % TNF α Inhibition
PARAMETER MEASURED: inhibition at 1 µM (%)

[[record]]
molecule = "Cc1c(NS(C)(=O)=O)cccc1N(Cc1ccc(C#N)cc1)Cc1ccc(Oc2cc(OCCc3cccnc3)cc(C(N)=O)c2)cc1"
parameter_measured = "inhibition at 1 µM"
numeric_readout = 100

[[record]]
molecule = "Cc1c(NS(C)(=O)=O)cccc1N(Cc1ccc(C#N)cc1)Cc1ccc(Oc2cc(C#N)cc(OCCc3cccnc3)c2)cc1"
parameter_measured = "inhibition at 1 µM"
numeric_readout = 93.7

[[record]]
molecule = "CCS(=O)(=O)Nc1cccc(N(Cc2ccc(C#N)cc2)Cc2ccc(Oc3cc(CO)cc(OCc4cccnc4)c3)cc2)c1C"
parameter_measured = "inhibition at 1 µM"
numeric_readout = 91.2

[[record]]
molecule = "Cc1c(NS(C)(=O)=O)cccc1N(Cc1ccc(C#N)cc1)Cc1ccc(Oc2cc(CO)cc(OCC3CCOC3)c2)cc1 (centres unmarked)"
parameter_measured = "inhibition at 1 µM"
numeric_readout = 88.2

[[record]]
molecule = "CCS(=O)(=O)Nc1cccc(N(Cc2ccc(Oc3cccc(OCCc4cccnc4)c3)cc2)Cc2cccc(C#N)c2)c1C"
parameter_measured = "inhibition at 1 µM"
numeric_readout = 96.3


----------
Tested on: LPS-induced IL-6 secretion in U 937 cells
TEST METHOD NOTES: Modulation of proinflammatory cytokine production in U 937 cells (transrepression): IL-6
Format: cell-based
RUN CONDITIONS: Homo sapiens; 1 μM test compound; U 937 cells stimulated with 5 μg/mL LPS; ELISA
Procedure: VI) Modulation of Proinflammatory Cytokine Production in U 937 Cells (Determination of Transrepression) Testing of compounds in GR-mediated inhibition of LPS-induced TNFα, IL-1β, and IL-6 secretion in U 937 cells. Differentiated U 937 cells are incubated for 2 days in RPMI1640 medium containing 10% CCS (charcoal treated calf serum). […]
PARAMETER MEASURED: inhibition at 1 µM (%)

[[record]]
compound = "Cc1c(NS(C)(=O)=O)cccc1N(Cc1ccc(C#N)cc1)Cc1ccc(Oc2cc(C#N)cc(OCC3CCOC3)c2)cc1 (centres unmarked) [Example 82]"
parameter_measured = "inhibition at 1 µM"
numeric_readout = 83

[[record]]
compound = "CCS(=O)(=O)Nc1cccc(N(Cc2ccc(Oc3cccc(OCCc4cccnc4)c3)cc2)Cc2cccc(C#N)c2)c1C [Example 60]"
parameter_measured = "inhibition at 1 µM"
numeric_readout = 91.7

[[record]]
compound = "CCS(=O)(=O)Nc1cccc(N(Cc2ccc(C#N)cc2)Cc2ccc(Oc3cccc(OCc4ccoc4)c3)cc2)c1C [Example 20]"
parameter_measured = "inhibition at 1 µM"
numeric_readout = 97.9

[[record]]
compound = "Cc1c(NS(C)(=O)=O)cccc1N(Cc1ccc(C#N)cc1)Cc1ccc(Oc2cccc(OCC3CCOC3)c2)cc1 (centres unmarked) [Example 58]"
parameter_measured = "inhibition at 1 µM"
numeric_readout = 76

[[record]]
compound = "CNC(=O)c1cc(OCCc2cccnc2)cc(Oc2ccc(CN(Cc3ccc(C#N)cc3)c3cccc(NS(C)(=O)=O)c3C)cc2)c1 [Example 74]"
parameter_measured = "inhibition at 1 µM"
numeric_readout = 100

[[record]]
compound = "Cc1c(NS(C)(=O)=O)cccc1N(Cc1ccc(C#N)cc1)Cc1ccc(Oc2cc(CO)cc(OCc3cccnc3)c2)cc1 [Example 79]"
parameter_measured = "inhibition at 1 µM"
numeric_readout = 97

[[record]]
compound = "CCS(=O)(=O)Nc1cccc(N(Cc2ccc(Oc3cccc(OCC4CCOC4)c3)cc2)Cc2cccc(C#N)c2)c1C (centres unmarked) [Example 16]"
parameter_measured = "inhibition at 1 µM"
numeric_readout = 81

[[record]]
compound = "Cc1c(NS(C)(=O)=O)cccc1N(Cc1ccc(C#N)cc1)Cc1ccc(Oc2cc(CO)cc(OCCc3cccnc3)c2)cc1 [Example 76]"
parameter_measured = "inhibition at 1 µM"
numeric_readout = 88.8

